Biological target: T1, cynomolgus (Macaca fascicularis) ST2L extracellular domain with C-terminal His6 tag (Macaca fascicularis (cynomolgus), UniProt Q01638 19-321 (human entry))
T1 construct: also called cyno ST2L-ECD; cynoST2L-ECD
T1 chain: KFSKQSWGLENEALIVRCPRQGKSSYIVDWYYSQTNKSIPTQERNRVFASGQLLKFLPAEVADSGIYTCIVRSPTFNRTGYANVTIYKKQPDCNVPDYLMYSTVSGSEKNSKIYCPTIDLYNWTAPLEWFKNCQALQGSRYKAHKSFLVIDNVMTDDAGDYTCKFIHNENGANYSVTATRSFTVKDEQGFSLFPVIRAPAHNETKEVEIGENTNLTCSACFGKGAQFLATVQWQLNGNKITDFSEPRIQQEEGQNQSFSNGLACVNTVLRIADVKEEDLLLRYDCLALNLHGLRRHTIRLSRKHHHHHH
Experiment: SPR, mAb captured, ST2L-ECD in solution
# key: entry, value: kon
Value expressed in M⁻¹ s⁻¹; do not type the unit.

According to the records, this binder ST2M49 (antibody, V domains shown, Phage-derived Fab converted to IgG) VH: EVQLVQSGAEVKKPGESLKISCKGSGYSFTSYWIGWVRQMPGKGLEWMGIIYPGDSYTRYSPSFQGQVTISADKSISTAYLQWSSLKASDTAMYYCARIGGMFDYWGQGTLVTVSS VL: EIVLTQSPATLSLSPGERATLSCRASQSVANALAWYQQKPGQAPRLLIYKASNRATGIPARFSGSGSGTDFTLTISSLEPEDFAVYYCQQYYGWPITFGQGTKVEIK displays kon of 4.66e+07

Below: the item to evaluate.
// STLM62 (antibody, human IgG2, V domains shown, Mouse hybridoma C2494 cloned into human IgG2 background (STLM62); also called C2494) VH: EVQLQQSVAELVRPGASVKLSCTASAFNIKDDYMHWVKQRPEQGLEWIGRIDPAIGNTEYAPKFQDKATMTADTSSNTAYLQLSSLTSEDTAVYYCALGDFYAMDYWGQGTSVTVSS VL: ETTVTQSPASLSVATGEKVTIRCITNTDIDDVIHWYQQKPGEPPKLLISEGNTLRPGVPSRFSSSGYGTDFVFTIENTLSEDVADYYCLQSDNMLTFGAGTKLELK : kon value = 4.51e+07
